Origin of measurements: the supplement of paper PMC10567573

B1: SLC6A17 (parent)
chain: KAVEEELDAEDRPAWNSKLQYILA

variants of: B1; assay: protein stability index of a GFP-peptide fusion (GPS, HEK-293T) (PSI 1-6); higher = more stable; details: c terminus: a fixed tail appended;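 also: lentivirally expressed fusions sorted by FACS into six bins by GFP to DsRed ratio, PSI derived from sequencing read proportions per bin multiplied by bin number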
Listing: protein stability index of selected variants
Response field accepts a number only; no unit should be typed.

// known answers, use as guide
S17G 2.75
A2K 2.46
I22K 3.78
V3R 3.14
S17K 2.19

Requested field: protein stability index. Item: "K18C"
3.19

Returns the measured protein stability index for the input variant. Input: "L19A"
3.8

Recorded protein stability index for "D11R" , please?
2.54

Quick one: protein stability index of "A9P" ?
2.54

// lookup protein stability index for "R12D"
3.74

// lookup protein stability index for "R12A"
3.54

Reported protein stability index, variant "A2N" : ____
2.61

Value lookup for protein stability index; key = "I22P"
4.44

Request the reported protein stability index associated with "L7V"
2.9

Item "L23A" has what recorded protein stability index?
3.9

// query protein stability index value for entry "W15K"
3.99
